Data provenance is PubChem BioAssay AID2696.

test target: Short transient receptor potential channel 6 (Mus musculus) (UniProt Q61143)
Sequence (Q61143 whole entry, looked up): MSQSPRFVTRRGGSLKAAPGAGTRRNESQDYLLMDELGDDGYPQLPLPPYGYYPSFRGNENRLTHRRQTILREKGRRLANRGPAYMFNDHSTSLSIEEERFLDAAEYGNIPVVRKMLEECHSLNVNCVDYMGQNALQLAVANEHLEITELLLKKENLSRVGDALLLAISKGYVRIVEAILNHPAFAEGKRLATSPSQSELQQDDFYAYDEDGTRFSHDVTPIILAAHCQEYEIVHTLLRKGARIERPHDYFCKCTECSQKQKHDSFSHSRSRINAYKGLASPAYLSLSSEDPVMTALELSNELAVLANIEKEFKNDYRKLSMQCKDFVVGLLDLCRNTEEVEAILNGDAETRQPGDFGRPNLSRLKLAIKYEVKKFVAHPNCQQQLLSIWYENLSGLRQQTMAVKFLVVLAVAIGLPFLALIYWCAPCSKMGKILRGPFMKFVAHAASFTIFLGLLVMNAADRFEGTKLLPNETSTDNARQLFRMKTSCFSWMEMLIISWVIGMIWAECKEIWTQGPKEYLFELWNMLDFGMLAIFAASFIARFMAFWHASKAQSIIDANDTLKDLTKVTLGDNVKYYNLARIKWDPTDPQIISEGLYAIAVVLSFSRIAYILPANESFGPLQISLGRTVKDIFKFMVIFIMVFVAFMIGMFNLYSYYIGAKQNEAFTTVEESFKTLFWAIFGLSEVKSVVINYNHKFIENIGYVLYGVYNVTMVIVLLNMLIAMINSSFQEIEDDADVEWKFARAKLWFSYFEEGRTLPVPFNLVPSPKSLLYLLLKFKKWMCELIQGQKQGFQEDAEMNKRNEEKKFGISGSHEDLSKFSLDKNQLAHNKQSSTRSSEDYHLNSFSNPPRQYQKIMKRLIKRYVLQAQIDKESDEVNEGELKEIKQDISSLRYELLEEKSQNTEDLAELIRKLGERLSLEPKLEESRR
experiment: TRPC6 inhibitor potency, dose response, cell-based, mouse TRPC6, HEK293, membrane potential (AID 2696)
assay context: TRPC6-expressing HEK293 cells, membrane potential dye fluorescence, acetylcholine-stimulated
pIC50: −log10 of the molar value.
measurement name: pIC50

{"compound": "CSCc1cc(N(C)c2ccccc2)nc(-c2ccccn2)n1", "observed": 4.55}
{"compound": "Cn1c(NCc2c[nH]c3ccccc23)nc2ccccc21", "observed": 4.30}
{"compound": "CC1CCC(C(C)C)C(OCC[N+](C)(C)C)C1 (configuration not stated)", "observed": 5.55}
{"compound": "CN1[C@@H]2CC[C@H]1CC(OC(=O)C(CO)c1ccccc1)C2 (some centres not stated)", "observed": 7.10}
{"compound": "NCCCn1c(C(=O)c2ccc(Cl)cc2)c2ccc(C(F)(F)F)cc2[n+]1[O-]", "observed": 4.35}
{"compound": "CN(C)CCOC(=O)C(c1ccccc1)C1(O)CCCC1 (configuration not stated)", "observed": 5.75}
{"compound": "N#CC(c1cccc(Cl)c1)c1ccc2c(C(F)(F)F)cc(C(F)(F)F)nc2n1 (configuration not stated)", "observed": 4.50}
{"compound": "CN1CCC(OC(=O)C2c3ccccc3Oc3ccccc32)CC1", "observed": 6.15}
{"compound": "COc1ccc2ccccc2c1CNCCc1ccccc1", "observed": 4.30}
{"compound": "CN(C)CCCN1c2ccccc2Sc2ccc(C(F)(F)F)cc21", "observed": 4.30}
{"compound": "CCC(C)N(CCNC(=O)CC1Oc2ccc(C)cc2NC1=O)C1CCCCC1 (configuration not stated)", "observed": 4.80}
{"compound": "CN(C)CCCNc1nc(-c2ccccc2)nc2ccccc12", "observed": 4.10}
{"compound": "CCOc1ccc(CNc2ccc3c(c2)ncn3C(C)(C)C)cc1", "observed": 4.85}
{"compound": "Cc1ccc2c(c1)NC(=O)C(CC(=O)Nc1ccc(CN3CCC(C)CC3)cc1)O2 (configuration not stated)", "observed": 5.40}
{"compound": "COc1ccc(Cl)cc1Nc1nc(N)c2ccccc2n1", "observed": 4.50}
{"compound": "c1ccc2c(c1)CCc1ccccc1C2=C1CCNCC1", "observed": 4.55}
{"compound": "Cc1ccc(CNc2ccc3c(c2)ncn3C(C)(C)C)cc1", "observed": 4.35}
{"compound": "CN1CCN(C2=Nc3cc(Cl)ccc3Nc3ccccc32)CC1", "observed": 4.80}
{"compound": "Cc1ccc(S(=O)(=O)NNC(=O)C2CCN(Cc3ccccc3)CC2)cc1", "observed": 5.55}
{"compound": "CN(C)CCOC(=O)C1(c2ccccc2)CCCC1", "observed": 4.35}
{"compound": "Cc1cccc(-c2nc(NCCCN3CCOCC3)c3ccccc3n2)c1", "observed": 4.15}
{"compound": "Cc1cccn2c(=O)c3cc(C(=O)NCc4ccco4)c(=N)n(C(C)C)c3nc12", "observed": 4.35}
{"compound": "COC(=O)c1ccc(NC(=O)c2snnc2-c2ccccc2)cc1", "observed": 4.40}
{"compound": "O=C(c1ccc2c(=O)n3c(nc2c1)CCCCC3)N1CCN(C(c2ccccc2)c2ccccc2)CC1", "observed": 4.70}
{"compound": "c1ccc2c(c1)CC1CNCc3cccc(c31)S2 (configuration not stated)", "observed": 4.15}
{"compound": "N#Cc1c(N2CCNCC2)nc(-c2ccco2)c2c1CCCC2", "observed": 4.35}
{"compound": "CN(CC#CC(O)(c1ccccc1)c1ccccc1)C(C)(C)C", "observed": 4.90}
{"compound": "CCOC(=O)N1CCN(Cc2nc(-c3ccc(Cl)cc3)no2)CC1", "observed": 4.10}
{"compound": "CCOC(=O)N1CCC(N2Cc3cccc(C(=O)Nc4ccc(CC)cc4)c3C2=O)CC1", "observed": 4.35}
{"compound": "COC(=O)c1[nH]c2ccc(Br)cc2c1NC(=O)CN1CCN(C2CCCCC2)CC1", "observed": 4.35}
{"compound": "CCOC(=O)N1CCC(N2CCN(CCC(C)C)C(CCO)C2)CC1 (configuration not stated)", "observed": 4.85}
{"compound": "CC(C)c1ccc(OCC(O)Cn2cnc3ccccc32)cc1 (configuration not stated)", "observed": 4.40}
